molecular target: Recombinant human JAK2 catalytic domain (Homo sapiens (Human)); assay: JAK2 inhibition assay; assay type: biochemical; details: semi-quantitative score
Quick list: IC50 per entry.

INSERT INTO measurements (molecule, assay_readout, assay_result) VALUES
  ('O=C(Nc1nc2cccc(-c3ccc(CN4CCOCC4)cc3)n2n1)C1CC1 [Compound 18]', 'IC50', '> 1000 nM');

Lookup: Sample CC(C)(O)C1CCN(Cc2ccc(-c3cccc4nc(NC(=O)C5CC5)nn34)cc2)CC1 [Compound 243] — what was its IC50?
Found: 501 to 1000 nM

Lookup: Next molecule: O=C(Nc1nc2cccc(-c3ccc(C(=O)N4CCC(C(=O)N5CCOCC5)CC4)cc3)n2n1)C1CC1 [Compound 219]
Found: > 1000 nM

Lookup: Next molecule: O=C(Nc1ccc(-c2cccc3nc(NC(=O)C4CC4)nn23)cc1)c1ccccc1 [Compound 21]
Found: 101 to 500 nM

----------
Quick list: IC50 per entry.
molecular target: Recombinant human JAK2 catalytic domain (Homo sapiens (Human)); experiment: JAK2 inhibition assay; type: biochemical; details: semi-quantitative score

Some compounds with known IC50 results, for comparison:
INSERT INTO measurements (compound, system_under_test, assay_readout, assay_result) VALUES
  ('CC(C)(C)OC(=O)NC1CN(Cc2ccc(-c3cccc4nc(NC(=O)C5CC5)nn34)cc2)C1 [Compound 279]', 'Recombinant human JAK2 catalytic domain (Homo sapiens (Human))', 'IC50', '> 1000 nM'),
  ('CN(C)C1CCN(C(=O)c2ccc(-c3cccc4nc(NC(=O)C5CC5)nn34)cc2)C1 (centres unmarked) [Compound 289]', 'Recombinant human JAK2 catalytic domain (Homo sapiens (Human))', 'IC50', '501 to 1000 nM'),
  ('O=C(Nc1nc2cccc(-c3ccc(C(=O)N4CCc5ccccc5C4)cc3)n2n1)C1CC1 [Compound 58]', 'Recombinant human JAK2 catalytic domain (Homo sapiens (Human))', 'IC50', '101 to 500 nM'),
  ('CC1CC(C)CN(C(=O)Cc2ccc(-c3cccc4nc(NC(=O)C5CC5)nn34)cc2)C1 (centres unmarked) [Compound 320]', 'Recombinant human JAK2 catalytic domain (Homo sapiens (Human))', 'IC50', '101 to 500 nM'),
  ('Cn1nc(C2CC2)cc1NC(=O)c1ccc(-c2cccc3nc(NC(=O)C4CC4)nn23)cc1 [Compound 218]', 'Recombinant human JAK2 catalytic domain (Homo sapiens (Human))', 'IC50', '101 to 500 nM'),
  ('O=C(Nc1nc2cccc(-c3ccc(CN4C[C@@H]5C[C@H]4CO5)cc3)n2n1)C1CC1 [Compound 230]', 'Recombinant human JAK2 catalytic domain (Homo sapiens (Human))', 'IC50', '101 to 500 nM'),
  ('CC(=O)NC1CN(C(=O)Cc2ccc(-c3cccc4nc(NC(=O)C5CC5)nn34)cc2)C1 [Compound 322]', 'Recombinant human JAK2 catalytic domain (Homo sapiens (Human))', 'IC50', '> 1000 nM');

Attention now shifts to the item below.
Lookup: Sample O=C(Nc1nc2cccc(-c3ccc(C(=O)N4CCCC(O)C4)cc3)n2n1)C1CC1 (centres unmarked) [Compound 270] — what was its IC50?
Found: 101 to 500 nM

----------
Quick list: IC50 per entry.
target: Recombinant human JAK2 catalytic domain (Homo sapiens (Human), UniProt O60674); experiment: JAK2 inhibition assay; assay type: biochemical; conditions: semi-quantitative score
Sequence (O60674 808-1132): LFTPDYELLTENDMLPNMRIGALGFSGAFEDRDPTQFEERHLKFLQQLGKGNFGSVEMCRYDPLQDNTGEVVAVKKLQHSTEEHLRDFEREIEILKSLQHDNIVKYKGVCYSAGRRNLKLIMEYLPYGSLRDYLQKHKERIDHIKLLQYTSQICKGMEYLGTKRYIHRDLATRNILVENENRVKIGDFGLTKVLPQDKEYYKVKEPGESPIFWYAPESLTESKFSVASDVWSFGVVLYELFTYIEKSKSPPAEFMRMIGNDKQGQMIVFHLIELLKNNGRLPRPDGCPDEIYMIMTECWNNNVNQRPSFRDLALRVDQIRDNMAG

Lookup: Sample CC(=O)N(Cc1cccnc1)c1ccc(-c2cccc3nc(NC(=O)C4CC4)nn23)cc1 — what was its IC50?
Found: < 100 nM

Lookup: Next compound: COC1CCN(Cc2ccc(-c3cccc4nc(NC(=O)C5CC5)nn34)cc2)CC1
Found: > 1000 nM

Lookup: Next compound: O=C(NCCOc1ccccc1)c1ccc(-c2cccc3nc(NC(=O)C4CC4)nn23)c(F)c1
Found: < 100 nM

Lookup: Next compound: O=C(Nc1nc2cccc(-c3ccc(-c4cccs4)cc3)n2n1)C1CC1
Found: 501 to 1000 nM

Lookup: Next compound: O=C(Cc1ccc(-c2cccc3nc(NC(=O)C4CC4)nn23)cc1)Nc1cccnc1
Found: 101 to 500 nM

Lookup: Next compound: CCN(CC)C1CCN(Cc2ccc(-c3cccc4nc(NC(=O)C5CC5)nn34)cc2)CC1
Found: > 1000 nM

Lookup: Next compound: CCN1C[C@H]2C[C@@H]1CN2Cc1ccc(-c2cccc3nc(NC(=O)C4CC4)nn23)cc1
Found: 501 to 1000 nM

Lookup: Next compound: O=C(Nc1nc2cccc(-c3cnn(Cc4ccccc4)c3)n2n1)C1CC1
Found: < 100 nM

----------
target: Recombinant human JAK1 catalytic domain (Homo sapiens (Human), UniProt P23458); assay: JAK1 inhibition assay; type: biochemical; conditions: semi-quantitative score
Sequence (P23458 850-1154): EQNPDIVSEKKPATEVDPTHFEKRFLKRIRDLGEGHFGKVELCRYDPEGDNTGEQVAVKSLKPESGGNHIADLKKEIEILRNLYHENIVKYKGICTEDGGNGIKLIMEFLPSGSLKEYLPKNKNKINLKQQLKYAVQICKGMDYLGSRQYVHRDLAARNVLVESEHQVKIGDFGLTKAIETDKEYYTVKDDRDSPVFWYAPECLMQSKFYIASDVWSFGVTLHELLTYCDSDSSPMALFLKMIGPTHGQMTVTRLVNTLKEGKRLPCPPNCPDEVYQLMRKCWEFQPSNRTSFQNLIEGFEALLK
assay-readout: IC50

INSERT INTO results (compound, assay_readout, assay_result) VALUES
  ('CC1CN(C(=O)c2ccc(-c3cccc4nc(NC(=O)C5CC5)nn34)cc2)CC(C)O1 (centres unmarked)', 'IC50', '< 100 nM'),
  ('O=C(Nc1nc2cccc(-c3ccc(CN4CCCCC4)cc3)n2n1)C1CC1', 'IC50', '501 to 1000 nM'),
  ('O=C(Nc1nc2cccc(-c3ccc(C(=O)N4CCCC(C(F)(F)F)C4)cc3)n2n1)C1CC1 (centres unmarked)', 'IC50', '< 100 nM'),
  ('CN(Cc1cccnc1)c1ccc(-c2cccc3nc(NC(=O)C4CC4)nn23)cc1', 'IC50', '> 1000 nM'),
  ('N#CCN(CCc1ccccc1)C(=O)c1ccc(-c2cccc3nc(NC(=O)C4CC4)nn23)cc1', 'IC50', '101 to 500 nM'),
  ('CN1CCN(C(=O)NCc2ccc(-c3cccc4nc(NC(=O)C5CC5)nn34)cc2)CC1', 'IC50', '101 to 500 nM'),
  ('N#Cc1ccc(COC2CN(c3ccc(-c4cccc5nc(NC(=O)C6CC6)nn45)cc3)C2)cc1', 'IC50', '< 100 nM'),
  ('O=C(Nc1nc2cccc(-c3ccc(CNc4ccccn4)cc3)n2n1)C1CC1', 'IC50', '< 100 nM'),
  ('O=C(Nc1nc[nH]n1)c1ccc(-c2cccc3nc(NC(=O)C4CC4)nn23)cc1', 'IC50', '101 to 500 nM'),
  ('O=C(Nc1nc2cccc(-c3ccc(C(=O)N4CCC(n5nnc6ccccc65)CC4)cc3)n2n1)C1CC1', 'IC50', '101 to 500 nM');

Lookup: Sample O=C(NC1CC1)c1ccc(-c2cccc3nc(NC(=O)C4CC4)nn23)cc1 — what was its IC50?
Found: 101 to 500 nM

Lookup: Next compound: CN1CCN(Cc2ccc(COc3ccc(-c4cccc5nc(NC(=O)C6CC6)nn45)cc3)cc2)CC1
Found: 101 to 500 nM

Lookup: Next compound: CCCCN(CCCN1CCOCC1)C(=O)c1ccc(-c2cccc3nc(NC(=O)C4CC4)nn23)cc1
Found: < 100 nM

Lookup: Next compound: CCCc1ccc(S(=O)(=O)Nc2ccc(-c3cccc4nc(NC(=O)C5CC5)nn34)cc2)cc1
Found: < 100 nM

Lookup: Next compound: CC(=O)NC1CN(C(=O)c2ccc(-c3cccc4nc(NC(=O)C5CC5)nn34)cc2)C1
Found: < 100 nM

Lookup: Next compound: NC(=O)C1CCN(C(=O)c2ccc(-c3cccc4nc(NC(=O)C5CC5)nn34)cc2)CC1
Found: 101 to 500 nM

----------
target: Recombinant human JAK1 catalytic domain (Homo sapiens (Human)); experiment: JAK1 inhibition assay; type: biochemical; conditions: semi-quantitative score
assay-readout: IC50

INSERT INTO measurements (compound, assay_readout, assay_result) VALUES
  ('O=C(Nc1nc2cccc(-c3ccc(C(=O)N4CCC(C(=O)N5CCOCC5)CC4)cc3)n2n1)C1CC1', 'IC50', '> 1000 nM'),
  ('COc1ccccc1C1CCN(C(=O)c2ccc(-c3cccc4nc(NC(=O)C5CC5)nn34)cc2)CC1', 'IC50', '101 to 500 nM'),
  ('Cc1nn(C)cc1S(=O)(=O)Nc1ccc(-c2cccc3nc(NC(=O)C4CC4)nn23)cc1', 'IC50', '101 to 500 nM'),
  ('O=C(Nc1nc2cccc(-c3ccc(C(=O)N4CCN(c5cccc(Cl)c5)CC4)cc3)n2n1)C1CC1', 'IC50', '< 100 nM'),
  ('O=C(Nc1nc2cccc(-c3ccc(CN4C[C@@H]5C[C@H]4CO5)cc3)n2n1)C1CC1', 'IC50', '101 to 500 nM');

Lookup: Record O=C(Nc1nc2cccc(-c3ccc(CN4CC[C@@H](O)C4)cc3)n2n1)C1CC1 : what is its IC50 with Recombinant human JAK1 catalytic domain (Homo sapiens (Human))?
Found: 101 to 500 nM

Lookup: Next compound: N#CCc1ccc(OCc2ccc(-c3cccc4nc(NC(=O)C5CC5)nn34)cc2)cc1
Found: < 100 nM

Lookup: Next compound: O=C(Nc1nc2cccc(-c3ccc(OCc4ccc[n+]([O-])c4)cc3)n2n1)C1CC1
Found: < 100 nM

Lookup: Next compound: O=C(Nc1nc2cccc(-c3ccc(C(=O)N4CCC(c5ccc(Cl)cc5)CC4)cc3)n2n1)C1CC1
Found: < 100 nM

Lookup: Next compound: O=C(Nc1nc2cccc(-c3ccc(C(=O)N4CCC(COc5cccnc5)CC4)cc3)n2n1)C1CC1
Found: < 100 nM

Lookup: Next compound: Cc1cc(COc2ccc(-c3cccc4nc(NC(=O)C5CC5)nn34)cc2)n(C)n1
Found: < 100 nM

Lookup: Next compound: O=C(Nc1nc2cccc(-c3ccc(OCc4ccc(-c5nnn[nH]5)nc4)cc3)n2n1)C1CC1
Found: < 100 nM
